# experimental_target: T1, O16-bS
# T1 chain: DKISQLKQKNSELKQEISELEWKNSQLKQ
# experiment_description: two-hybrid library CCNG1;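 also: natural log of median RNA to DNA barcode read ratio; higher means stronger binding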
parameter_measured: interaction score
Lab note: jot down the number only; don't add units.

Here is how some binders turned out for interaction score.
>  <binder>
DKNSQLKQENSELEQKISELKWKISQLKQ [O10-bS]

>  <readout_value>
-0.405

$$$$
>  <binder>
DEISQLEQENSELEQKISELKWENSQLEQ [O15-bS]

>  <readout_value>
1.93

$$$$
>  <binder>
DENSQLEQEISELEQENSELEWKISQLKQ [O14-bS]

>  <readout_value>
0.936

$$$$

Please examine the following record next.
Requested field: interaction score. Item: DKNSQLKQKISELKQKNSELKWEISQLEQ [O13-bS] -1.78
